meta.source: patent US8551991B2

biological target: Recombinant human GR (Homo sapiens, UniProt P04150); construct: purchased Invitrogen P2816; test: GR competitor assay by fluorescence polarization (binding activity to glucocorticoid receptor); conditions: 20 μM test compound solution, 25 μL per well plus 12.5 μL each of 4×GS1 and 4×GR solution; Fluormone GS1 ligand; positive control 2 mM dexamethasone; read-out: GR Binding ratio (%)
Sequence (P04150 whole entry): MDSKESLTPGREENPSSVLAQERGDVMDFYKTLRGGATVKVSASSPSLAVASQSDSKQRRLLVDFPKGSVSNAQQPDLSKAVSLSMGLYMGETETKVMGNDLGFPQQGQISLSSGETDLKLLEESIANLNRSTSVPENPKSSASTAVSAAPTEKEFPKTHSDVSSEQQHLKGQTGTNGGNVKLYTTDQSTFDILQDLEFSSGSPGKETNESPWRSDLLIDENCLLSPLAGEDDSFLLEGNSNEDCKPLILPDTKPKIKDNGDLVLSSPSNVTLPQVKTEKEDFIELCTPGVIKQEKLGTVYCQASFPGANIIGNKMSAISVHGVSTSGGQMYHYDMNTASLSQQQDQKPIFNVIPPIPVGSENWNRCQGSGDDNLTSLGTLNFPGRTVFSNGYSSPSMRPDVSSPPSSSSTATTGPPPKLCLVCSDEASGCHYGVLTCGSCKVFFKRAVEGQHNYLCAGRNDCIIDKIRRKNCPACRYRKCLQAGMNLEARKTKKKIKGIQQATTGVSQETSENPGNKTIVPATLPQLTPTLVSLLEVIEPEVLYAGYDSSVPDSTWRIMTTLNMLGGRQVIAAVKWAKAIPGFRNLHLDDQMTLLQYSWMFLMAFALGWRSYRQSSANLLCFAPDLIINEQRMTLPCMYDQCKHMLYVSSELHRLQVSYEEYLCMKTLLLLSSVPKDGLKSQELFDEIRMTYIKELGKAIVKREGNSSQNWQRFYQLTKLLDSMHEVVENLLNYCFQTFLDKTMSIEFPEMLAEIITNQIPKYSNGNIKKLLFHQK
Observable: inhibition at 10 µM (%)
// return numeric value only (unit: %, not printed)

Using the record for COc1cc(OC(=O)N2CCOCC2)ccc1-c1ccc2c(c1COc1cc(F)ccc1C)N(C)C(=O)C(C)(C)N2 [Compound 18-1] , state its measured inhibition at 10 µM.
100

Using the record for COc1ccc(Cl)cc1-c1ccc2c(c1COc1ccccc1CCO)N(C)C(=O)C(C)(C)N2 [Compound 3-10] , state its measured inhibition at 10 µM.
100

Using the record for COc1ccc([N+](=O)[O-])cc1-c1ccc2c(c1COc1cc(F)ccc1C)N(C)C(=O)C(C)(C)N2 [Compound 6-27] , state its measured inhibition at 10 µM.
100

Using the record for COc1ccc(F)cc1-c1ccc2c(c1COc1ccccc1)N(C)C(=O)C(C)(C)N2 [Compound 5-9] , state its measured inhibition at 10 µM.
100

Using the record for COc1cc(O)ccc1-c1ccc2c(c1COC(=O)c1ccc(C)s1)N(C)C(=O)C(C)(C)N2 [Compound 13-2] , state its measured inhibition at 10 µM.
91

Using the record for C=CCc1ccccc1OCc1c(-c2ccc(F)cc2OC)ccc2c1N(C)C(=O)C(C)(C)N2 [Compound 3-17] , state its measured inhibition at 10 µM.
100

Using the record for CCCC(=O)Oc1ccc(-c2ccc3c(c2CNc2ccccc2OC)N(C)C(=O)C(C)(C)N3)c(OC)c1 [Compound 21-5] , state its measured inhibition at 10 µM.
98

Using the record for COc1ccc(CO)cc1-c1ccc2c(c1COc1cc(F)ccc1C)N(C)C(=O)C(C)(C)N2 [Compound 9-1] , state its measured inhibition at 10 µM.
100

Using the record for COc1cc(OC(=O)c2ccccc2C)ccc1-c1ccc2c(c1COC(=O)c1cccc(F)c1)N(C)C(=O)C(C)(C)N2 [Compound 5-24] , state its measured inhibition at 10 µM.
100

Using the record for COc1ccc(Cl)cc1-c1ccc2c(c1COc1cc(F)ccc1C)N(C)C(=O)C(C)(C)N2 [Compound 6-15] , state its measured inhibition at 10 µM.
100

Using the record for COc1cc(OC(=O)c2ccc(C)nc2)ccc1-c1ccc2c(c1COc1cc(F)ccc1C)N(C)C(=O)C(C)(C)N2 [Compound 15-9] , state its measured inhibition at 10 µM.
100

Using the record for COc1cc(OC(=O)c2ccccc2SC)ccc1-c1ccc2c(c1COC(=O)c1ccc(C)s1)N(C)C(=O)C(C)(C)N2 [Compound 15-24] , state its measured inhibition at 10 µM.
94

Using the record for COc1ccc(F)cc1-c1ccc2c(c1CNc1ccccc1)N(C)C(=O)C(C)(C)N2 [Compound 5-14] , state its measured inhibition at 10 µM.
100

Using the record for COc1cc(N(C)C(C)=O)ccc1-c1ccc2c(c1COc1cc(F)ccc1C)N(C)C(=O)C(C)(C)N2 [Compound 16-3] , state its measured inhibition at 10 µM.
86

Using the record for COc1ccc([N+](=O)[O-])cc1OCc1c(-c2ccc(OC(=O)c3ccccc3C)cc2OC)ccc2c1NC(=O)C(C)(C)N2 [Compound 22] , state its measured inhibition at 10 µM.
100
